# experimentalDetails: Cytotoxicity against Balb/c mouse lymph node cells after 48 hrs by MTT assay
# Type: cell-based
readoutKind: log10 of CC50 at 48 h (log10 of the value in µM)
Scale: decimal log of CC50 at 48 h, CC50 at 48 h in µM.

Data request: Give the reported value of log10 of CC50 at 48 h for this record: COc1ccc(C(/C=C/c2ccc(Cl)cc2)=N/O)cc1
Data returned: 2.46

Data request: State its log10 of CC50 at 48 h: Cc1ccc(C(/C=C/c2ccc(Cl)c(Cl)c2)=N/O)cc1
Data returned: 1.17

Data request: Please report the measured log10 of CC50 at 48 h for O/N=C(\C=C\c1ccc(F)cc1)c1ccc(Br)cc1
Data returned: 1.31

Data request: Quick one: give measured log10 of CC50 at 48 h for O/N=C(\C=C\c1ccc(F)cc1)c1ccc(Cl)cc1
Data returned: 1.06

Data request: Provide measured log10 of CC50 at 48 h value, entry: Cc1ccc(C(/C=C/c2ccc(Br)cc2)=N/O)cc1
Data returned: 1.53

Data request: Supply log10 of CC50 at 48 h value. Item: COc1ccc(C(/C=C/c2ccc(Br)cc2)=N/O)cc1
Data returned: 2.87

Data request: Return the recorded log10 of CC50 at 48 h value; entry: Cc1ccc(C(/C=C/c2ccc(F)cc2)=N/O)cc1
Data returned: 1.12

Data request: Answer with the recorded log10 of CC50 at 48 h of COc1ccc(C(/C=C/c2cccs2)=N/O)cc1 only.
Data returned: 1.03

Data request: Give reported log10 of CC50 at 48 h value for COc1ccc(/C=C/C(=N\O)c2ccc(C)cc2)cc1
Data returned: 2.07

Data request: Indicate the recorded log10 of CC50 at 48 h value for this molecule: COc1ccc(C(=O)/C=C/c2ccc(Br)cc2)cc1
Data returned: 1.97

Data request: State its log10 of CC50 at 48 h: O/N=C(\C=C\c1cccs1)c1ccc(Cl)cc1
Data returned: 1.07

Data request: Given O/N=C(\C=C\c1ccc(Cl)cc1)c1ccc(Cl)cc1 , respond with its log10 of CC50 at 48 h.
Data returned: 1.15
